meta.source: patent US20230026163A1

Parameter: Papp B→A at 2 h. Scope: all listed entries.
# testedSystem: P-glycoprotein (Homo sapiens)
# Sequence (P08183 whole entry): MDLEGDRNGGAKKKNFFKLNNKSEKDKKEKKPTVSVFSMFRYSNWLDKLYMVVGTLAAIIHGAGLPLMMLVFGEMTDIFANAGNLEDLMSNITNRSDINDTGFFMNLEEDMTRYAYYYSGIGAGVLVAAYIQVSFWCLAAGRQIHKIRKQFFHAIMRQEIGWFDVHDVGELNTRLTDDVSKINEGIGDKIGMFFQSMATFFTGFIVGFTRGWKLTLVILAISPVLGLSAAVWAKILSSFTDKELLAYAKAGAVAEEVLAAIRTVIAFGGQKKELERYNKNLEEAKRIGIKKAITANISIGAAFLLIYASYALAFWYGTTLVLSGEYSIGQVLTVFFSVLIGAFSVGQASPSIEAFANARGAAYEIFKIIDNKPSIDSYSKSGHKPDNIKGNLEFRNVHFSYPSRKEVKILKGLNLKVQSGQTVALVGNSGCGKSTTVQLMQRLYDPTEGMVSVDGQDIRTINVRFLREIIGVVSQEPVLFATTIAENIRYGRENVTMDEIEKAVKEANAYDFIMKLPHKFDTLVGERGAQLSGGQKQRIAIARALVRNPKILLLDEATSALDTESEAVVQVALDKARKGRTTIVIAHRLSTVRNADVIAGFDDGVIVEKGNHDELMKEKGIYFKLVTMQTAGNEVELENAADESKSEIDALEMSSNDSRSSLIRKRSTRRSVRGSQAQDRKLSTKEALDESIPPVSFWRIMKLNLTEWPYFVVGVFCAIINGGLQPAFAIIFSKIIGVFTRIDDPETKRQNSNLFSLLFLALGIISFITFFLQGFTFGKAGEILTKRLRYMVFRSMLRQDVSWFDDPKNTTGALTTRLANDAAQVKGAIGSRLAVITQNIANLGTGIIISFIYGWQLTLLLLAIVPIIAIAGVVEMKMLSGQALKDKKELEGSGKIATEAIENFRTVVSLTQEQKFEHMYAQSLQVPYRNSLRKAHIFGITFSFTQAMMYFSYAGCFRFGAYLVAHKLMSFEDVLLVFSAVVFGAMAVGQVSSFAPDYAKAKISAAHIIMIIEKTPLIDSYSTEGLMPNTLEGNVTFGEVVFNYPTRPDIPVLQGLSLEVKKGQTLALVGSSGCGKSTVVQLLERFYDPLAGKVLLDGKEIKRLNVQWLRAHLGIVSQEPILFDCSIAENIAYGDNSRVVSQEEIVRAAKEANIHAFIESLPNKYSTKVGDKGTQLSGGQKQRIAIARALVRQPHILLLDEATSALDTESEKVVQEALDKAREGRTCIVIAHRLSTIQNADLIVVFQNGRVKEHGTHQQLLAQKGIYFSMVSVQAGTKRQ
# protocolSummary: in vitro
# assaySetup: dog, MDCK-MDR1

>  <compound>
O=[N+]([O-])c1ccc(C(OP(=O)(N2CC2)N2CC2)C(F)(F)F)c2ccccc12 (stereo not drawn)

>  <Papp B→A at 2 h>
11.9 ×10⁻⁶ cm/s

$$$$
>  <compound>
O=[N+]([O-])c1ccc(COP(=O)(N2CC2)N2CC2)c2ncccc12

>  <Papp B→A at 2 h>
21.8 ×10⁻⁶ cm/s

$$$$
>  <compound>
COCCc1ccc(OCC(O)CNC(C)C)cc1 (stereo not drawn) [Metoprolol, reference compound]

>  <Papp B→A at 2 h>
18.9 ×10⁻⁶ cm/s

$$$$
>  <compound>
Cc1ccc(NC(=O)c2ccc(CN3CCN(C)CC3)cc2)cc1Nc1nccc(-c2cccnc2)n1 [Imatinib, reference compound]

>  <Papp B→A at 2 h>
24.1 ×10⁻⁶ cm/s

$$$$
>  <compound>
CC(OP(=O)(N1CC1)N1CC1)c1ccc([N+](=O)[O-])c2cnccc12 (stereo not drawn)

>  <Papp B→A at 2 h>
26.3 ×10⁻⁶ cm/s

$$$$
>  <compound>
COc1cc2nc(N3CCN(C(=O)c4ccco4)CC3)nc(N)c2cc1OC [Prazosin, reference compound]

>  <Papp B→A at 2 h>
28.2 ×10⁻⁶ cm/s

$$$$
